molecular target: EGFR (D770_N771insNPG) (Homo sapiens, UniProt P00533, INS770NPG); assay: HotSpot radiometric kinase assay, inhibition of EGFR (D770_N771insNPG) mutant; conditions: 33P ATP, room temperature, 120 m
Sequence (P00533 with tags, fused parts or gaps INS770NPG limits assumed): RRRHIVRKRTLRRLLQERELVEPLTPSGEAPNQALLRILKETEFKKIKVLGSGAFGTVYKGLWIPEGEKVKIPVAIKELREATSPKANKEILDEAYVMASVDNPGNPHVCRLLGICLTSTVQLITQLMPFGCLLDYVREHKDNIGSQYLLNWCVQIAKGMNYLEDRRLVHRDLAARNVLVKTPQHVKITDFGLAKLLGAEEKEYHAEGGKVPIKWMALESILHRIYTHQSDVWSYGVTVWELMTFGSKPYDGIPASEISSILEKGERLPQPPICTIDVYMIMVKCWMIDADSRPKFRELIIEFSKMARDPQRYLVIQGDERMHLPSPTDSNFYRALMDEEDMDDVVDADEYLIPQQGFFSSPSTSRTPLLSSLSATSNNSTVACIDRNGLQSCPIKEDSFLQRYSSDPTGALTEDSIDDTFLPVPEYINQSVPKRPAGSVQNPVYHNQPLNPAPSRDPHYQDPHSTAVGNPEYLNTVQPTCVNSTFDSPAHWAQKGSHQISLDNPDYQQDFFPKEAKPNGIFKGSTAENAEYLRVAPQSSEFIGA
result_type: IC50
Note to self: number, then unit, no commentary.

Previously resolved entries follow.
> print(dat)
                        structure.as.smiles  result.type  recorded.value
1  CCOc1nn(CCO)c2c1/C=C/c1n[nH]c3cnc(cc13)-c1c(C)nn(C)c1O[C@@H](C)[C@H]1CCCN1C2         IC50         0.63 nM
2  Cc1nn(C)c2c1-c1cc3c(n[nH]c3c(C)n1)/C=C/c1c(OCC#N)nn(CCO)c1CN(C)C[C@H](C)O2         IC50         0.39 nM
3  Cc1nn(C)c2c1-c1cc3c(n[nH]c3cn1)/C=C/c1c(OCC#N)nn(CCO)c1CN(C)[C@@H](C)CO2         IC50         2.23 nM
4  Cc1nn(C)c2c1-c1cc3c(n[nH]c3cn1)/C=C/c1c(OCC#N)nn(CCO)c1CN(C)[C@H](C)CO2         IC50         0.19 nM
5  Cc1nn([C@@H](C)CO)c2c1/C=C/c1n[nH]c3c(C)nc(cc13)-c1c(C)nn(C)c1O[C@@H](C)CN(C)C2         IC50         4.83 nM

The compound CCOc1nn(CCO)c2c1/C=C/c1n[nH]c3cnc(cc13)-c1c(C)nn(C)c1O[C@H](C)[C@H]1CCCN1C2 showed IC50 equal to 0.17 nM

# IC50 of CCOc1nn([C@@H](C)CO)c2c1/C=C/c1n[nH]c3cnc(cc13)-c1c(C)nn(C)c1O[C@H](C)CN(CC)C2 = 0.62 nM

Reported IC50 ( CCc1nn([C@@H](C)CO)c2c1/C=C/c1n[nH]c3cnc(cc13)-c1c(C)nn(C)c1O[C@@H](C)CN(C)C2 ) = 0.7 nM

Per the record, CCOc1nn(CCO)c2c1/C=C/c1n[nH]c3cnc(cc13)-c1c(CC)nn(C)c1O[C@@H](C)CN(CC)C2 has IC50 of 0.66 nM

Summary for this compound, CCOc1nn(CCO)c2c1/C=C/c1n[nH]c3cnc(cc13)-c1cnn(C)c1O[C@@H](C)CN(C(C)C)C2 : IC50 is 0.23 nM

Value of IC50 reported for the compound CCOc1nn(CCO)c2c1/C=C/c1n[nH]c3cnc(cc13)-c1cnn(C)c1O[C@H](C)CN(CC)C2 is 0.07 nM

The measured IC50 associated with CCN1Cc2c(c(C)nn2CCO)/C=C/c2n[nH]c3cnc(cc23)-c2c(C)nn(C)c2O[C@H](C)C1 reads 0.15 nM

Per the record, CCOc1nn(CCO)c2c1/C=C/c1n[nH]c3c(C)nc(cc13)-c1cnn(C)c1O[C@H](C)CN(CC)C2 has IC50 of 1.62 nM

The reported IC50 of the compound CCOc1nn(CCO)c2c1/C=C/c1n[nH]c3c(C)nc(cc13)-c1cnn(C)c1O[C@H](C)CN(C)C2 was 1.9 nM

Please fill in: IC50 reported for CC(C)Oc1nn(CCO)c2c1/C=C/c1n[nH]c3cnc(cc13)-c1cnn(C)c1OC[C@H](C)N(C(C)C)C2 = 3.07 nM
